Listed below: IC50 values for each entry.
TARGET SYSTEM: human LPA1 (Homo sapiens)
Construct: expressed in transfected cells; host or cells: Chinese hamster ovary (CHO) cells
Sequence (Q92633 whole entry): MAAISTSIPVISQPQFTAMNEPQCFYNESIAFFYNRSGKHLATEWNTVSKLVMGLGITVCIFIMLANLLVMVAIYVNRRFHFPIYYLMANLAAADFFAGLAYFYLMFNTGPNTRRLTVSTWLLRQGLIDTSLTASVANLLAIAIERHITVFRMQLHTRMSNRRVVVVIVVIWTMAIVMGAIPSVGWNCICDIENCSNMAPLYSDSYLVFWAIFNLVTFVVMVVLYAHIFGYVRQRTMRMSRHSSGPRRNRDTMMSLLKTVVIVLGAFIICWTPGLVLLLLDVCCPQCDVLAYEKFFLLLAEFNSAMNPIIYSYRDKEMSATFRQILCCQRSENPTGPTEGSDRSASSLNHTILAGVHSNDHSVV
PROCEDURE SUMMARY: LPA1 functional antagonist assay (LPA-induced calcium flux in CHO cells overexpressing human LPA1)
Format: cell-based
CONDITION NOTES: inhibition of calcium flux induced by 10 nM LPA, CHO cells overexpressing human LPA1; read-out: hLPA1 IC50
Description: The effectiveness of compounds of the present invention as LPA1 inhibitors can be determined in an LPA1 functional antagonist assay as follows: Chinese hamster ovary cells overexpressing human LPA1 were plated overnight (15,000 cells/well) in poly-D-lysine coated 384-well microplates (Greiner bio-one, Cat #781946) in DMEM/F12 medium (Gibco, Cat #11039). […] IC50 values were determined by fitting data to a 4-parameter logistic equation (GraphPad Prism, San Diego Calif.).
Counter-ions that a name gives are not always drawn.
A complete answer gives the number followed by the unit.

{"MOLECULE": "Cc1nc(-c2nnn(C)c2COc2ncn(CC3CC3)n2)ccc1O[C@H]1CCC[C@H](C(=O)O)C1", "IC50": "57 nM"}

Entry Cc1nc(-c2nnn(C)c2Cn2cc(C(=O)c3ccccc3)nn2)ccc1O[C@H]1CCC[C@H](C(=O)O)C1 : IC50 on human LPA1 (Homo sapiens) = 241 nM

Item: CCCCc1nc(Nc2c(-c3ccc(O[C@H]4CCC[C@H](C(=O)O)C4)c(C)n3)nnn2C)no1 [Example 275, TFA salt] | System: human LPA1 (Homo sapiens) | IC50: 18 nM

Item: CCCCc1noc(NCc2c(-c3ccc(O[C@H]4CCC[C@H](C(=O)O)C4)c(C)n3)nnn2C)n1 [Example 43, bis TFA salt] | System: human LPA1 (Homo sapiens) | IC50: 76 nM

Given the molecule Cc1nc(-c2nnn(C)c2Cc2nnc(-c3ccccc3)o2)ccc1O[C@H]1CCC[C@H](C(=O)O)C1 and test system human LPA1 (Homo sapiens), the measured IC50 is 290 nM

The measured IC50 that Cc1nc(-c2nnn(C)c2CNc2cnn(-c3ccccc3)n2)ccc1O[C@H]1CCC[C@H](C(=O)O)C1 showed for human LPA1 (Homo sapiens) is 10 nM

Recorded IC50 for Cc1nc(-c2nnn(C)c2Cn2nnc(C3CCCC3)n2)ccc1O[C@H]1CCC[C@H](C(=O)O)C1 on human LPA1 (Homo sapiens) was 14 nM

These data points were gathered from patent US11319315B2.
